Each recorded value in this set is attributed to patent US20060140929A1.

measurementTarget: thrombin
assayText: cell-based or functional assay
Recorded measurements of Relative Activity (ratio of variant IC50/WT IC50), chromogenic thrombin inhibition assay, one per entry
Reply numerically in ratio, unit not repeated.

Some entries whose results are on file:
binder: hirudin mutein M 61 (L30A) (other) VVYTDCTESGQNLCLCEGSVVCGQGNKCIAGSDGEKNQCVTGEGTPKPESHNDGDFEEIPEEYLQ
displayUnit: ratio
measuredNumber: 1
//
binder: hirudin mutein M 26 (I29R L30T) (other) VVYTDCTESGQNLCLCEGSVVCGQGNKCRTGSDGEKNQCVTGEGTPKPESHNDGDFEEIPEEYLQ
displayUnit: ratio
measuredNumber: 1
//
binder: hirudin mutein M 37 (L13T) (other) VVYTDCTESGQNTCLCEGSVVCGQGNKCILGSDGEKNQCVTGEGTPKPESHNDGDFEEIPEEYLQ
displayUnit: ratio
measuredNumber: 0.6

[Q] Any idea what Relative Activity (ratio of variant IC50/WT IC50), chromogenic thrombin inhibition assay was measured for hirudin mutein M 32 (I29T L30A) (other) VVYTDCTESGQNLCLCEGSVVCGQGNKCTAGSDGEKNQCVTGEGTPKPESHNDGDFEEIPEEYLQ ?
[A] 1.67

[Q] Recorded Relative Activity (ratio of variant IC50/WT IC50), chromogenic thrombin inhibition assay for hirudin mutein M 75 (K47T) (other) VVYTDCTESGQNLCLCEGSVVCGQGNKCILGSDGEKNQCVTGEGTPTPESHNDGDFEEIPEEYLQ , please?
[A] 2.2
